Assay: NCI Yeast Anticancer Drug Screen. Data for the cln2 rad14 strain (AID 165)
Settings: S. cerevisiae cln2 rad14 strain, at 50.0 µM
Compounds without any hit were thinned out: in the full panel of roughly 79,000, 15% have a hit. Activity calls are given as the source filed them. Rule as the data show it: active = growth inhibition above about 70%; inactive = the rest.
I would appreciate it if you answered using one of these outcomes: True for active, False for inactive

Tell me the recorded outcome of this test for CCOC(=O)C(Br)CN1C(=O)c2ccccc2C1=O (configuration not stated) .
False

Check COc1cc2cccc(N=Cc3ccccc3Cl)c2cc1OC too.
False

Further, for Cc1ccc(NC(=O)COc2ccccc2)c(C)c1 ?
False

Please do the same for CC(NC(=O)CNC(=O)CNC(=O)OCc1ccccc1)C(=O)OCc1ccccc1 (configuration not stated) as well.
False

Next up: COc1ccc(CN2C(=O)C(=O)N(C)C2=O)c2ccccc12
False

Note, next up: CC1=CC(C)(C)N=C2SC(=O)c3nc4ccccc4c(=O)n3N12
False

Here is the next molecule: Cc1ccc(NC(=S)/N=C/c2c(O)[nH]c(=O)[nH]c2=O)c(C)c1
False

Also CCOc1ccc(/C=C2/NC(=S)N(CN3CCCCC3)C2=O)cc1 , if possible.
False

Another molecule to look at: COC(=O)C(=O)C1CCc2c(C(=O)OC)nc3[nH]n(-c4ccccc4)c(=O)c3c21 (configuration not stated)
False

// query: CCCCCC(CN(C)C)C(=O)CC(SCC)c1ccc(Cl)c(Cl)c1 (configuration not stated)
True

Entry to check: COC(=O)C12OCC34C(CC5C(C)=C(O)C(=O)CC5(C)C3C(O)C1O)OC(=O)C(OC(C)=O)C24 (configuration not stated)
True

Next molecule up: O=[N+]([O-])c1nc(-[n+]2ccccc2)[n-]c1Br
False

Follow-up entry: O=C1OC(c2ccccc2)C=C1Nc1ccccc1 (configuration not stated)
False

Subsequent entry: O=C(OCC1OC(Br)CC(OC(=O)c2ccc([N+](=O)[O-])cc2)C1OC(=O)c1ccc([N+](=O)[O-])cc1)c1ccc([N+](=O)[O-])cc1 (configuration not stated)
False

Same for O=C(Cc1nccc2c1[nH]c1ccccc12)OC1C#CCSCC#C/C=C\1 (configuration not stated)
False

Check C/C=C/C=C/C(=O)CCC1(C)OC(=O)C(C)=C1O (configuration not stated) too.
False

Moving on to the next molecule: CCOP(=O)(OCC)OCCCCn1cnc2c1c(=O)n(C)c(=O)n2C
False

Quick one: CCOC(=O)c1ccc(NCCCc2c(C)nc(N)[nH]c2=O)cc1
False

Next molecule: O=C(Oc1ccc([N+](=O)[O-])cc1)C1CCCN1C(=O)OCc1ccccc1 (configuration not stated)
False

Cool, now COc1cccc(C2c3cc4c(cc3OC(N3CCCCC3)C2C)OCO4)c1O (configuration not stated)
False

Again, but for CN(C/C=C/CN(C)C(=S)Nc1ccccc1)C(=S)Nc1ccccc1
False

For O=S(=O)(Cc1ccccc1)CC(Br)CBr (configuration not stated) then?
False
